system: beta-catenin/TCF4 engagement (Homo sapiens)
Construct: expressed in transfected cells; host or cells: HEK293
Sequence (P35222 1-781): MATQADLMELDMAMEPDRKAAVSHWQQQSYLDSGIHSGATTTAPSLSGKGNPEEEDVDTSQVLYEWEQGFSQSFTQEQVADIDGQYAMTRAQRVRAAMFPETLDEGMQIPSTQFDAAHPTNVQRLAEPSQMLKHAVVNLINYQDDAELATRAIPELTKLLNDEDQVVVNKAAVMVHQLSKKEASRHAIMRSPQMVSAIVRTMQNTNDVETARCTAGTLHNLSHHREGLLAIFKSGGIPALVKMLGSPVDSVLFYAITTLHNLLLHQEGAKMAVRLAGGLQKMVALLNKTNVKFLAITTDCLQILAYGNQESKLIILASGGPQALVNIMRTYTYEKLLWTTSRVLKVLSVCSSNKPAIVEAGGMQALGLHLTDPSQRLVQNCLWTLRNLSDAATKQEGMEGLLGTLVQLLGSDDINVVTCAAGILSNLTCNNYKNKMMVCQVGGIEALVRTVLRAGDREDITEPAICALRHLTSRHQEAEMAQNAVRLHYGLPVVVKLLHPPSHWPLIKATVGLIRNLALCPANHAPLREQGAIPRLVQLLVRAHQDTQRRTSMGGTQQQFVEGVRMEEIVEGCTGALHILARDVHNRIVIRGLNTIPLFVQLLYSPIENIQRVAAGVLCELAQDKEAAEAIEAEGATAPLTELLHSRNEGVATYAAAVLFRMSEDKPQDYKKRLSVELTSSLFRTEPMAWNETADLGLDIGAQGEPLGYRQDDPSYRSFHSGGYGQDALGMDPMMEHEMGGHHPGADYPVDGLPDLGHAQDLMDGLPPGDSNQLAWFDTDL
experiment_notes: Nano-BRET target engagement assay (B-cat-Halo & TCF4-Luc in HEK293 cells)
Type: cell-based
run_parameters: read-out: NanoBRET Abs IC50
readout_type: pIC50
Note: pIC50 values are expressed as the negative base-10 logarithm of concentration in M.

[[record]]
compound = "CC(=O)N1CCC[C@]12CC=CCCCC1(CCCC=CCCCOC(=O)N3CC[C@@](C(=O)N[C@@H](Cc4ccccc4Cl)C(=O)N[C@@H](Cc4csc5ccccc45)C(=O)N[C@@H](CCC(N)=O)C(N)=O)(C3)NC(=O)[C@H](CC(C)C)NC(=O)[C@H](Cc3cccc(C(F)(F)F)c3)NC(=O)[C@H](C)NC(=O)[C@H](C)NC(=O)[C@H](CC(=O)O)NC(=O)[C@H](CC(=O)O)NC1=O)NC(=O)[C@H](CC(C)(C)C)NC(=O)[C@H](CC(=O)O)NC2=O (stereo partly drawn)"
system = "beta-catenin/TCF4 engagement (Homo sapiens)"
quantitative_result = 4.91


[in] Give the reported pIC50 for this compound. CC(=O)N1CCC[C@]12CC=CCCCC1(CCCC=CCCCOC(=O)N3CC[C@@](C(=O)N[C@@H](Cc4ccsc4)C(=O)N[C@@H](Cc4csc5ccccc45)C(=O)N[C@@H](CCC(N)=O)C(N)=O)(C3)NC(=O)[C@H](Cn3cc(CN(C)C)nn3)NC(=O)[C@H](Cc3ccccc3)NC(=O)[C@H](C)NC(=O)[C@H](C)NC(=O)[C@H](CN(CC(=O)O)CC(F)(F)F)NC(=O)[C@H](CC(=O)O)NC1=O)NC(=O)[C@H](CC(C)(C)C)NC(=O)[C@H](CC(=O)O)NC2=O (stereo partly drawn) [I-1862]
[out] 4.71
